System: A549-ACTB-RAB5A
ASSAY TEXT: lowest phenotypically active concentration; higher = less potent
EXPERIMENTAL CONDITIONS: treatment time: 24 h
VALUE TYPE: lowest phenotypically active concentration

{"columns": ["MOLECULE", "TEST RESULT"],
 "data": [
  ["C[C@@H]1C[C@H]2[C@@H]3CCC4=CC(=O)C=C[C@]4(C)[C@@]3(Cl)[C@@H](O)C[C@]2(C)[C@@]1(OC(=O)c1ccco1)C(=O)CCl [mometasone furoate]", "≤ 0.3 µM"],
  ["COC(=O)Nc1nc2ccc(C(=O)c3cccs3)cc2[nH]1", "≤ 0.3 µM"],
  ["O=C(O)[C@]1(Cc2cccc(Nc3nccs3)n2)CC[C@@H](Oc2cccc(Cl)c2F)CC1", "≤ 0.3 µM"]
]}

---

System: A549-ACTB-RAB5A
ASSAY TEXT: phenotypically active (imaging signature differs from DMSO and reproducible) at any of 0.3-9 uM (binary (1 = active, 0 = inactive)); higher = active
EXPERIMENTAL CONDITIONS: treatment time: 24 h
Where a name gives a salt, the structure may show the parent alone.
Classes used: Y for active, N for inactive

{"columns": ["MOLECULE", "DISCRETE LABEL"],
 "data": [
  ["O=C1NC(=O)C(c2ccccc2)(c2ccccc2)N1", "N"],
  ["O=C(Nc1nc2cc(C(F)(F)F)cc(NC3CC3)n2n1)c1cccnc1", "Y"],
  ["CC(C)(N)c1cc(C(=O)N[C@@H]2CCc3ccc(OC4=C5CCC(=O)N=C5NC=C4)cc3C2)cc(C(F)(F)F)c1 [ML 786 dihydrochloride]", "Y"],
  ["CO[C@H]1C=CO[C@@]2(C)Oc3c(C)c(O)c4c(O)c(c(/C=N/N5CCN(C)CC5)c(O)c4c3C2=O)NC(=O)C(C)=CC=C[C@H](C)[C@H](O)[C@@H](C)[C@@H](O)[C@@H](C)[C@H](OC(C)=O)[C@@H]1C", "N"],
  ["NC(=O)c1sc2c([N+](=O)[O-])cc(C(F)(F)F)cc2[n+]1[O-]", "N"],
  ["Brc1c(NC2=NCCN2)ccc2nccnc12", "N"],
  ["O=C(OC12CC3CC(CC(C3)C1)C2)c1ccc(NCc2cc(O)ccc2O)cc1", "Y"],
  ["O=S(=O)(c1cccc2cnccc12)N1CCCNCC1", "Y"],
  ["Cc1ccc(-n2nc(C(C)(C)C)cc2NC(=O)Nc2ccc(OCCN3CCOCC3)c3ccccc23)cc1", "Y"],
  ["CC[C@H]1OC(=O)[C@H](C)[C@@H](O[C@H]2C[C@@](C)(OC)[C@@H](O)[C@H](C)O2)[C@H](C)[C@@H](O[C@@H]2O[C@H](C)C[C@H](N(C)C)[C@H]2O)[C@](C)(O)C[C@@H](C)C(=O)[C@H](C)[C@@H](O)[C@]1(C)O", "N"],
  ["CC1=C(CC(=O)O)c2cc(F)ccc2/C1=C\\c1ccc(S(C)=O)cc1 (centres undefined)", "N"],
  ["O=C(/C=C/c1ccc(O)cc1)c1ccc(O)cc1O", "N"],
  ["CC[C@@H]1C(=O)N(C)c2cnc(Nc3ccc(C(=O)NC4CCN(C)CC4)cc3OC)nc2N1C1CCCC1", "Y"],
  ["CNC(=O)c1cc(Oc2ccc(NC(=O)Nc3ccc(Cl)c(C(F)(F)F)c3)c(F)c2)ccn1", "Y"],
  ["CC(C)(C)c1ccc(C(O)CCCN2CCC(C(O)(c3ccccc3)c3ccccc3)CC2)cc1 (centres undefined)", "Y"],
  ["CCCCC(=O)O[C@H]1CC[C@H]2[C@@H]3CCc4cc(O)ccc4[C@H]3CC[C@]12C [estradiol valerate]", "N"],
  ["CC(C)(C)NS(=O)(=O)c1cncc(-c2cc(F)c3nc(N)nn3c2)c1", "N"],
  ["NCC[C@H](O)C(=O)N[C@H]1C[C@@H](N)[C@H](O[C@H]2O[C@H](CN)[C@@H](O)[C@H](O)[C@H]2O)[C@@H](O)[C@@H]1O[C@H]1O[C@H](CO)[C@@H](O)[C@H](N)[C@H]1O [Amikacin hydrate]", "N"],
  ["Nc1ncnc2c1c(-c1ccc(Oc3ccccc3)cc1)nn2C1CCCC1", "Y"]
]}
